Test system: HER2+ HCC1954 breast cancer cells
Experiment: In vitro cytotoxicity assay (PrestoBlue), Example 9 (FIG. 6)
Format: cell-based
Conditions: Homo sapiens; HCC1954 cells, FIG. 6; read-out: IC50
Protocol: HER2+ SK-BR-3 breast cancer cells (ATCC), HCC1954 breast cancer cells (CRL-2338, ATCC), JIMT-1 breast cancer cells (DSMZ) and SKOV-3 ovarian cancer cells (ATCC) were cultured essentially according to the providers' instructions. After incubation with ADCs, cell viability was determined using PrestoBlue reaction using manufacturer's instructions. Cell viability data data was transferred to GraphPad Prism to determine IC50 values. […]
pIC50: −log10 of the molar value.
Measured Property: pIC50

Prompt: Requested field: pIC50. Item: CC[C@@]1(O)C(=O)OCc2c1cc1n(c2=O)Cc2c-1nc1cc(F)c(C)c3c1c2[C@@H](N)CC3 [exatecan, Exatecan]
Response: 8.10 to 8.30
